# study target: Dickkopf-related protein 1 (Homo sapiens)
# assay remarks: DKK1 binders on small-molecule microarrays, primary screen, biochemical, small-molecule microarray, 635 nm fluorescence scan (AID 1106);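 note: score merges emission near 667 nm with signal to noise over three replicate slides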
# condition parameters: DKK1 binding, higher = more signal
# composite z-score annotations
reported metric: composite z-score

- COC(=O)CC=C[C@@H](C)[C@@H](C=NOC[C@@H](O)COCc1ccco1)NS(=O)(=O)c1ccc(C)cc1: 0.864
- CO[C@H]1COC(=O)CC=C[C@H](C)[C@H](OC)COC(=O)[C@@H](C)NC(=O)CC=C[C@@H]1C: 1.56
- CCOC(=O)CCN1C(=O)[C@H]2[C@@H]3C(=CC[C@H]2C1=O)C(=O)[C@H]1O[C@H]1[C@H]3O: -0.324
- O=C1[C@H]2CCn3c(=O)n(-c4ccccc4)c(=O)n3[C@H]2[C@H](O)[C@@H]2O[C@H]12: 0.427
- CO[C@@H]1COC(=O)CC=C[C@H](C)[C@H](OC)COC(=O)[C@@H]2CCCN2C(=O)CC=C[C@H]1C: 1.52
- CCN1C(=O)[C@H]2[C@H]3[C@H](O)[C@H](O)CC(=NOC[C@@H](O)COCc4ccco4)[C@H]3CC[C@H]2C1=O: 1.39
- CC(=O)OC[C@H]1O[C@H](CC=NOCC[C@@H]2C=C[C@H](OC(C)=O)[C@@H](COC(C)=O)O2)C=C[C@@H]1OC(C)=O: 0.864
- C=CC[C@@H]1C=C[C@H](ON=CC[C@@H]2C=C[C@H](OC(C)=O)[C@@H](COC(C)=O)O2)[C@@H](CO)O1: 0.764
- O=C(NN=C1C[C@@H](O)[C@@H](O)[C@@H]2[C@@H]3C(=O)N(Cc4ccc5c(c4)OCO5)C(=O)[C@@H]3CC[C@@H]12)OCc1ccccc1: -0.465
- O=C(NCCC[N+]1=CC=NC1c1ccccc1)N1CCCc2nc(-c3ccc(Br)cc3)ccc21 (stereo not given): 0.42
- CON=C(C)CCN1CCCc2nc(C)c(C)cc21: 0.847
- CC(C)=NOC(C)CN1CCCCc2nc(C)c(C)cc21 (stereo not given): 0.619
- CCOC(=O)CCN1C(=O)[C@H]2[C@H]3[C@H](O)[C@H](O)CC(=NNC(=O)OCC)[C@H]3CC[C@H]2C1=O: 0.913
- COC(=O)CC=C[C@@H](C)[C@@H](C=NOC[C@@H](C)[C@H](OCc1ccccc1)C(C)C)OC: 0.426
- CO[C@H]1C[C@@H]2C[C@H](O)CC(CC(=O)O[C@@H](C=CCC(C)C)C[C@@H]3CC[C@H](C)[C@@H](C1)O3)O2: 1.13
- COC(OC)[C@@H](C)[C@H](OC)[C@@H](C)[C@H](OC)c1ccccc1: 0.392
- CC(C)[C@@H](OCc1ccccc1)[C@H](C)C=NO[C@H](C)c1cn([C@@H]2COC[C@H]2O)nn1: 0.0939
- O=C1[C@H]2CCn3c(=O)n(Cc4cc5c(cc4Cl)OCO5)c(=O)n3[C@H]2[C@H](O)[C@@H]2O[C@H]12: 0.552
- O=C1[C@H]2[C@H]3[C@H](O)[C@H](O)CC(=NOCc4ccccc4)[C@@H]3CC[C@H]2C(=O)N1c1cccc(Oc2ccccc2)c1: 0.0072
- CCN1C(=O)[C@H]2[C@H]3[C@H](O)[C@H](O)CC(=NNC(=O)OCc4ccccc4)[C@H]3CC[C@H]2C1=O: -0.26
- CC(C)[C@H](NC(=O)OC(C)(C)C)[C@@H](O)CC(=O)C(C)(C)C: 0.513
- CC(CCN1CCCc2nc(C)c(C)cc21)=NOC[C@@H](C)[C@H](OCc1ccccc1)C(C)C: -0.265
- CCOC(=O)[C@H](CC(C)C)NC(=O)CCC1CC(OC(=O)NCc2ccc3c(c2)OCO3)CC2(CCCC(COC(=O)NCCc3ccc(Cl)cc3)O2)O1 (stereo not given in full): 0.96
- CCOC(=O)[C@H](CC(C)C)NC(=O)CCC1CC(OC(=O)NCc2ccc3c(c2)OCO3)CC2(CCCC(COC(=O)NCCC(C)C)O2)O1 (stereo not given in full): 0.0586
- CCOC(=O)[C@H](CC(C)C)NC(=O)CCC1CC(OC(=O)NCc2ccc3c(c2)OCO3)CC2(CCCC(COC(=O)NCCc3ccccc3OC)O2)O1 (stereo not given in full): 0.434

====

# study target: NADPH oxidase 2 (Homo sapiens) (UniProt P04839)
# Sequence (P04839 whole entry, looked up): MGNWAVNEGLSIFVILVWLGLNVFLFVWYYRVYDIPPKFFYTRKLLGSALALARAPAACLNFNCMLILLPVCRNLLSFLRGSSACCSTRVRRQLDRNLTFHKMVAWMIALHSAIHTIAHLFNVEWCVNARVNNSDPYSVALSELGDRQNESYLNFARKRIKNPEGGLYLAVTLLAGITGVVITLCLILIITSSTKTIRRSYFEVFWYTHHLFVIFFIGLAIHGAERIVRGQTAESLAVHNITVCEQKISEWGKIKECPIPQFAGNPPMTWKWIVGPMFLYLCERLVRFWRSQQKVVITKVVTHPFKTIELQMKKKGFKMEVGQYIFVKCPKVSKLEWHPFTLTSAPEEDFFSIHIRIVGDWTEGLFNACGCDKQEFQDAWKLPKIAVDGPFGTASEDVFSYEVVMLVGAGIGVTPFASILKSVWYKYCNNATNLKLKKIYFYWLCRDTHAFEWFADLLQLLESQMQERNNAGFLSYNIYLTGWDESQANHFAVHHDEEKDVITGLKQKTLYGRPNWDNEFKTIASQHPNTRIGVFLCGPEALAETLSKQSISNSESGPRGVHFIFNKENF
# assay remarks: NOX2-dependent H2O2 signal modulators, primary screen, NOX inhibitor project, cell-based, HEK293-NOX2, PMA-stimulated, Amplex Red fluorescence (AID 1159); note: test concentration not given here
# condition parameters: 45 min, higher = more signal, called active from +8 up or from −8 down
Assign satisfied to entries whose z-score meets or exceeds -0.8; assign not satisfied to the rest.

- CON=C1c2cc(OC)ccc2O[C@H](c2cccc(OC)c2)[C@H]1O: not satisfied
- CC(C)=NOC(C)CN1CCCc2nc(C)c(C)cc21 (centres undefined): satisfied
- CC(C)=CCCC(C)=CCON=C1C[C@@H](O)[C@@H](O)[C@@H]2[C@@H]3C(=O)N(Cc4ccc5c(c4)OCO5)C(=O)[C@@H]3CC[C@@H]12: not satisfied
- CCN1C(=O)[C@H]2[C@H]3[C@H](O)[C@H](O)CC(=NOCC(C)C)[C@H]3CC[C@H]2C1=O: not satisfied
- CC(=O)OC[C@H]1O[C@H](CC=NO[C@@H](C)c2cn([C@H](CO)Cc3ccccc3)nn2)C=C[C@@H]1OC(C)=O: not satisfied
- COC(=O)CC=C[C@@H](C)[C@@H](C=NOC(C)CN1CCCCc2nc(C)c(C)cc21)NS(=O)(=O)c1ccc(C)cc1 (some centres undefined): satisfied
- CCOC(=O)CCN1C(=O)[C@H]2[C@H]3[C@H](O)[C@H](O)CC(=NO[C@@H]4O[C@H](CO)[C@@H](O)[C@H](O)[C@H]4O)[C@H]3CC[C@H]2C1=O: satisfied
- CC(C)[C@@H](OCc1ccccc1)[C@H](C)C=NO[C@@H](C)c1cn([C@H](CO)Cc2ccccc2)nn1: not satisfied
- CCCCOC(OCCCC)C(O)CSc1ccc2ccccc2c1 (centres undefined): satisfied

====

# assay remarks: MM1S myeloma cell viability, profiling panel, resazurin fluorescence, basal, 24 h, PK04 Diversity Set (AID 1174);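 note: MM1S multiple myeloma cell line; test concentration not given here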
# condition parameters: higher = more signal, called active from +8 up or from −8 down
Calls of active or inactive are those of the source.
# z-score annotations
reported metric: z-score

• COc1ccc(O[C@H]2C=C[C@@H](c3ccccc3)O[C@@H]2CON=C2c3cc(OC)ccc3O[C@H](c3cccc(OC)c3)[C@H]2O)cc1 = -0.89 (inactive)
• CC(C)C(=O)N[C@H]1CCCN1C(=O)C=Cc1ccccc1 = -0.46 (inactive)
• COC(=O)[C@@H]1CC[C@H](C)[C@@H](c2ccc(C)cc2)N1C(=O)c1ccc(C=NOC[C@@H](O)[C@H]2O[C@@H]3OC(C)(C)O[C@@H]3[C@H]2O)cc1 = -1.05 (inactive)
• CO[C@H]1COC(=O)[C@H](C)COC(=O)[C@H](C)NC(=O)CC=C[C@H]1C = 1.13 (inactive)
• CC(C)CON=C1[C@H]2CCn3c(=O)n(C)c(=O)n3[C@H]2[C@H](O)[C@@H]2O[C@H]12 = 0.0226 (inactive)
• COc1ccc(O[C@H]2C=C[C@@H](c3ccccc3)O[C@@H]2CON=C(C)CCN2CCCc3nc(C)c(C)cc32)cc1 = -0.662 (inactive)
• CC(C)(C)N1C(=O)[C@H]2[C@H]3[C@H](O)[C@H](O)CC(=NNC(=O)OCc4ccccc4)[C@H]3CC[C@H]2C1=O = 0.0137 (inactive)
• C[C@@H](c1ccccc1)N1C(=O)[C@H]2[C@H]3[C@H](O)[C@H](O)CC(=NOC[C@@H](O)COCc4ccco4)[C@H]3CC[C@H]2C1=O = 0.899 (inactive)
• C#CCCCON=C1C[C@@H](O)[C@@H](O)[C@@H]2[C@@H]3C(=O)N(CC)C(=O)[C@@H]3CC[C@H]12 = -0.729 (inactive)
• O=C1C2=CC[C@H]3C(=O)N(C[C@@H]4CCCO4)C(=O)[C@H]3[C@H]2[C@H](O)[C@@H]2O[C@H]12 = -4.71 (inactive)
• C[C@H]1CC[C@@H](C(=O)O)N[C@@H]1c1cccc(N2CCCC2=O)c1 = -0.0691 (inactive)
• CCOC(=O)[C@H](Cc1ccccc1)NC(=O)CCC1CC(OC(=O)NCc2cccc3ccccc23)CC2(CCCC(COC(=O)NCC3CCCCC3)O2)O1 (some centres undefined) = 1.43 (inactive)
• COC(=O)[C@@H]1CC[C@H](C)[C@@H](c2ccc(Br)cc2)N1C[C@H](O)CN=[N+]=[N-] = -0.666 (inactive)
• COCC#Cc1ccc([C@@H]2N[C@H](C(=O)O)CC[C@H]2C)cc1 = 0.525 (inactive)
